// reported IC50 for each item listed
tested on: LOX IMVI; assay: cells; assay type: functional, cell-based; conditions: Homo sapiens, 24 h
Description: Cytotoxicity against human LOX IMVI cells assessed as reduction in cell viability incubated for 24 hrs by MTT assay
Only the number, expressed in µM, is required.

Reported IC50 for COc1cc(-c2nc(-c3ccccc3)[nH]c2-c2ccnc(NCCCNS(=O)(=O)c3ccc(F)cc3)n2)ccc1F was 3.96

Reported IC50 for COc1ccc(S(=O)(=O)NCCCNc2nccc(-c3[nH]c(-c4ccccc4)nc3-c3ccc(F)c(OC)c3)n2)cc1 was 6.13

Reported IC50 for COc1cc(-c2nc(-c3ccccc3)[nH]c2-c2ccnc(NCCCNS(=O)(=O)c3ccccc3)n2)ccc1Cl was 7.47

Reported IC50 for COc1cc(-c2nc(-c3ccccc3)[nH]c2-c2ccnc(NCCCNS(=O)(=O)c3cccc(F)c3)n2)ccc1Cl was 5.11

Reported IC50 for O=S(=O)(NCCCNc1nccc(-c2[nH]c(-c3ccccc3)nc2-c2ccc(F)c(O)c2)n1)c1ccccc1 was 9.58

* * *

biological target: Mitogen-activated protein kinase 14 (Homo sapiens, UniProt Q16539); assay: Inhibition of p38 alpha (unknown origin) at 10 uM using Ser/Thr 15 as substrate incubated for 1 hr in presence of ATP by Z'-Lyte assay relative to control
Sequence (Q16539 whole entry): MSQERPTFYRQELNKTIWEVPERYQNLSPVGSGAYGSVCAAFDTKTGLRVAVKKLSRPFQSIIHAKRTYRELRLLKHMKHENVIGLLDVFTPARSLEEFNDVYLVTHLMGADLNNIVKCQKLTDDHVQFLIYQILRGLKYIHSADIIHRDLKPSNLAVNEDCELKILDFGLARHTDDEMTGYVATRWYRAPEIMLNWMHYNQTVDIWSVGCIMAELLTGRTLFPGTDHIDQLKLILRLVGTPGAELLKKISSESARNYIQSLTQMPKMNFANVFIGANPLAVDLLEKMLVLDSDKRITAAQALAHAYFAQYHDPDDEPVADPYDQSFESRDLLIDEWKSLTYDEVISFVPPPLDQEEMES
// reported inhibition for each item listed
Only the number, expressed in %, is required.

[
  {
    "Molecular string": "COc1ccc(S(=O)(=O)NCCCNc2nccc(-c3[nH]c(-c4ccccc4)nc3-c3ccc(Cl)c(OC)c3)n2)cc1",
    "Numeric value": 54.6
  },
  {
    "Molecular string": "O=S(=O)(NCCCNc1nccc(-c2[nH]c(-c3ccccc3)nc2-c2ccc(F)c(O)c2)n1)c1cccc(F)c1",
    "Numeric value": 90.5
  },
  {
    "Molecular string": "COc1cc(-c2nc(-c3ccccc3)[nH]c2-c2ccnc(NCCCNS(=O)(=O)c3ccc(C)cc3)n2)ccc1F",
    "Numeric value": 79.4
  },
  {
    "Molecular string": "COc1cc(-c2nc(-c3ccccc3)[nH]c2-c2ccnc(NCCCNS(=O)(=O)c3cccc(F)c3)n2)ccc1Cl",
    "Numeric value": 58.3
  },
  {
    "Molecular string": "COc1cc(-c2nc(-c3ccccc3)[nH]c2-c2ccnc(NCCCNS(=O)(=O)c3ccc(Cl)cc3)n2)ccc1F",
    "Numeric value": 72.8
  },
  {
    "Molecular string": "Cc1ccc(S(=O)(=O)NCCCNc2nccc(-c3[nH]c(-c4ccccc4)nc3-c3ccc(F)c(O)c3)n2)cc1",
    "Numeric value": 87.8
  },
  {
    "Molecular string": "COc1cc(-c2nc(-c3ccccc3)[nH]c2-c2ccnc(NCCCNS(=O)(=O)c3ccc(C)cc3)n2)ccc1Cl",
    "Numeric value": 50.4
  },
  {
    "Molecular string": "COc1cc(-c2nc(-c3ccccc3)[nH]c2-c2ccnc(NCCCNS(=O)(=O)c3cccc(F)c3)n2)ccc1F",
    "Numeric value": 82.7
  }
]

Please find the next compound below.
Test item O=S(=O)(NCCCNc1nccc(-c2[nH]c(-c3ccccc3)nc2-c2ccc(Cl)c(O)c2)n1)c1ccc(O)cc1 ; Mitogen-activated protein kinase 14 (Homo sapiens, UniProt Q16539); reported inhibition was 77.6

* * *

system: Serine/threonine-protein kinase B-raf (Homo sapiens), P15056 [V600E]; assay: Inhibition of BRAF V600E mutant (unknown origin) at 10 uM using Ser/Thr 03 as substrate after 1 hr in presence of ATP by Z'-LYTE assay relative to control
Sequence (P15056 whole entry V600E): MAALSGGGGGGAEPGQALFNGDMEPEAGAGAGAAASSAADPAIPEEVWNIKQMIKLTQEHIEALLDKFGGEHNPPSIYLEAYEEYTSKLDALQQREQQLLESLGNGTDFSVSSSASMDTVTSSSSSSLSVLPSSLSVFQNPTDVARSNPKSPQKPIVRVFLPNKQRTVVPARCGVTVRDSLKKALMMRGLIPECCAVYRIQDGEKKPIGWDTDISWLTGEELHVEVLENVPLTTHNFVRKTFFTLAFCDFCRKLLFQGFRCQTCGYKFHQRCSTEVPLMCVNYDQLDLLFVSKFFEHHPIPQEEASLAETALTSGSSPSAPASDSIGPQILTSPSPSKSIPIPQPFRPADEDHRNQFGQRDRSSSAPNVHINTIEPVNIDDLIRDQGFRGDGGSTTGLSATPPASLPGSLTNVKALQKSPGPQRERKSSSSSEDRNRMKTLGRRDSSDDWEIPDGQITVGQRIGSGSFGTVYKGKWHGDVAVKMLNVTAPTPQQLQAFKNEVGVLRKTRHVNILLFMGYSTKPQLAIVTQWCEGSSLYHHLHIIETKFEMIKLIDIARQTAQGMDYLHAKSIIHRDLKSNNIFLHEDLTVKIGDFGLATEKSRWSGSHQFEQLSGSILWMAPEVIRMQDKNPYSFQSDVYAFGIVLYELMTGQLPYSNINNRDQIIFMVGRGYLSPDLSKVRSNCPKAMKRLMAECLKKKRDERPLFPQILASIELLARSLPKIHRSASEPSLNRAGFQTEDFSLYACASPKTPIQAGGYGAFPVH
Assign 1 to entries whose inhibition meets or exceeds 90%; assign -1 to the rest.

[
  {
    "Molecular string": "COc1cc(-c2nc(-c3ccccc3)[nH]c2-c2ccnc(NCCCNS(=O)(=O)c3ccc(F)cc3)n2)ccc1F",
    "Group": -1
  },
  {
    "Molecular string": "O=S(=O)(NCCCNc1nccc(-c2[nH]c(-c3ccccc3)nc2-c2ccc(Cl)c(O)c2)n1)c1ccc(O)cc1",
    "Group": 1
  },
  {
    "Molecular string": "Cc1ccc(S(=O)(=O)NCCCNc2nccc(-c3[nH]c(-c4ccccc4)nc3-c3ccc(Cl)c(O)c3)n2)cc1",
    "Group": 1
  },
  {
    "Molecular string": "COc1cc(-c2nc(-c3ccccc3)[nH]c2-c2ccnc(NCCCNS(=O)(=O)c3ccc(Cl)cc3)n2)ccc1Cl",
    "Group": -1
  },
  {
    "Molecular string": "O=S(=O)(NCCCNc1nccc(-c2[nH]c(-c3ccccc3)nc2-c2ccc(F)c(O)c2)n1)c1ccc(Cl)cc1",
    "Group": 1
  }
]

Query :: Determine whether this compound has inhibition no lower than 90%: O=S(=O)(NCCCNc1nccc(-c2[nH]c(-c3ccccc3)nc2-c2ccc(F)c(O)c2)n1)c1cccc2ccccc12
Result :: 1

Query :: Determine whether this compound has inhibition no lower than 90%: COc1cc(-c2nc(-c3ccccc3)[nH]c2-c2ccnc(NCCCNS(=O)(=O)c3cccc(F)c3)n2)ccc1F
Result :: -1

Query :: Determine whether this compound has inhibition no lower than 90%: O=S(=O)(NCCCNc1nccc(-c2[nH]c(-c3ccccc3)nc2-c2ccc(Cl)c(O)c2)n1)c1ccc(Br)cc1
Result :: 1

Query :: Determine whether this compound has inhibition no lower than 90%: O=S(=O)(NCCCNc1nccc(-c2[nH]c(-c3ccccc3)nc2-c2ccc(Cl)c(O)c2)n1)c1ccc(C(F)(F)F)cc1
Result :: 1

Query :: Determine whether this compound has inhibition no lower than 90%: O=S(=O)(NCCCNc1nccc(-c2[nH]c(-c3ccccc3)nc2-c2ccc(Cl)c(O)c2)n1)c1ccc(F)cc1
Result :: 1
